# ASSAY_NAME: Tmax in cynomolgus monkey at 2.5 mg/kg, po after 24 hrs by HPLC
# Type: ADME, organism-based, Macaca fascicularis
# Parameters: dose 2.5 mg/kg, route oral
# STATED_CONDITIONS: in vivo
MEASURED_ATTRIBUTE: Tmax (h)
Value expressed in h; do not type the unit.

Data request: Record request: Tmax value, item CCC(CC)(NC(=O)c1c(C)nn2c1N[C@@H](c1ccccc1)CC2(C)C)c1ccc(C)cc1.Cl
Data returned: 1.33

Data request: Fill blank: measured Tmax of the compound CCC(CC)(NC(=O)c1c(C)nn2c1N[C@@H](c1ccccc1)CC2(C)C)c1ccc(C(=O)O)cc1 is ____.
Data returned: 4.33
